Entry source: ChEMBL document CHEMBL6087485

Target: Carbonic anhydrase 9 (Homo sapiens, UniProt Q16790)
Assay: Inhibition of recombinant human CA-IX incubated for 15 mins by phenol red dye based stopped-flow CO2 hydration assay

{"COMPOUND": "NS(=O)(=O)c1cccc(NC2=CC(c3ccc(C(F)(F)F)cc3)N(c3cccc(S(N)(=O)=O)c3)C2=O)c1 (centres undefined)", "SUBJECT_OF_TEST": "Carbonic anhydrase 9 (Homo sapiens, UniProt Q16790)", "UNIT_TEXT": "µM", "Ki": 0.831}
{"COMPOUND": "COc1cc(C2C=C(Nc3cccc(S(N)(=O)=O)c3)C(=O)N2c2cccc(S(N)(=O)=O)c2)cc(OC)c1O (centres undefined)", "SUBJECT_OF_TEST": "Carbonic anhydrase 9 (Homo sapiens, UniProt Q16790)", "UNIT_TEXT": "µM", "Ki": 0.0303}
{"COMPOUND": "COc1cccc(C2C=C(Nc3cccc(S(N)(=O)=O)c3)C(=O)N2c2cccc(S(N)(=O)=O)c2)c1O (centres undefined)", "SUBJECT_OF_TEST": "Carbonic anhydrase 9 (Homo sapiens, UniProt Q16790)", "UNIT_TEXT": "µM", "Ki": 0.007}
{"COMPOUND": "NS(=O)(=O)c1cccc(NC2=CC(c3cc(C(F)(F)F)cc(C(F)(F)F)c3)N(c3cccc(S(N)(=O)=O)c3)C2=O)c1 (centres undefined)", "SUBJECT_OF_TEST": "Carbonic anhydrase 9 (Homo sapiens, UniProt Q16790)", "UNIT_TEXT": "µM", "Ki": 0.539}
